Would you kindly list GI50 for each of these compounds?
Test system: RPMI-8226 leukemia
assay_explanation: NCI tumour cell line growth inhibition, 48 h

Reported GI50 for `Cc1nc2cncc(C#Cc3cncc(C(=O)Nc4ccc(CN5CCN(C)CC5)c(C(F)(F)F)c4)c3)c2nc1C` : what is it?
487 nM

Quick one: GI50 for `O=C(Nc1ccc(Cl)cc1)c1cc2c(cc1O)[nH]c1ccccc12` ?
2710 nM

What measured GI50 goes with `COc1ccc(Nc2ccnc(NCCNc3ccnc4cc(Cl)ccc34)n2)cc1` ?
1550 nM

Recorded GI50 for O=CN1N=C(c2ccc(Nc3ccnc4cc(Cl)ccc34)cc2)CC1c1ccccc1 (centres undefined) , please?
2550 nM

Any idea what GI50 was measured for `O=C1c2ccccc2-c2c1c1ccc([N+](=O)[O-])cc1c(=O)n2CCNCCCNCCn1c2c(c3ccc([N+](=O)[O-])cc3c1=O)C(=O)c1ccccc1-2` ?
5.38 nM

If you can, please state the reported GI50 value of `O=[N+]([O-])c1cc(O)c(O)cc1-c1cn2ccsc2n1` .
54600 nM

Need GI50 of `Nc1ccc(-c2nc3ccccc3[nH]2)c(O)c1` , thanks.
17000 nM

Using the record for COc1ccc(C2=CC(c3cc(OC)c(OC)c(OC)c3)NC(=O)N2)cc1OC (centres undefined) , report its GI50.
3030 nM

May I ask what GI50 has been recorded for `COc1cc(C(=O)/C=C/c2c(-c3ccc(F)cc3)nc3sc(C)cn23)cc(OC)c1OC` ?
2320 nM

====

System: KM20L2 colon
assay_explanation: NCI tumour cell line growth inhibition, 48 h
recorded_metric: TGI

Find the recorded TGI belonging to COc1ccccc1/C=C1\CCC(CNc2ccc(Cl)cc2)C1=O (stereo unspecified) and report it.
4.87 µM

Could you tell me which TGI is on file for `Oc1ccc2occ3c2c1CCC3` ?
> 100 µM

What value of TGI has been reported for the following molecule? [N-]=[N+]=NC1CC(n2cc(COCC(F)(F)F)c(=O)[nH]c2=O)OC1CO (stereo unspecified)
> 100 µM

Quick one: TGI for `Cn1cc(NC(=O)c2cc(NC(=O)Nc3cc(C(=O)Nc4cc(C(=O)NCCC(=N)N)n(C)c4)n(C)c3)cn2C)cc1C(=O)NCCC(=N)N` ?
> 100 µM

May I ask what TGI has been recorded for `CCN(CC)CC(=O)/C=C/c1ccc(C)cc1` ?
49.4 µM

Data request, read-out TGI, for `CN(C)CCCNc1c2ccccc2nc2cccc([N+](=O)[O-])c12`
0.0398 µM

Which TGI is listed for `O=S(=O)([O-])[O-].[Cl-].[NH2-].[NH2-].[NH2-].[NH2-].[Ru+3].c1ccc(-c2cccnc2)cc1` ?
> 100 µM

Which TGI is reported for this molecule? `CNS(=O)(=O)NN(C)S(=O)(=O)c1ccc(Cl)cc1`
> 100 µM

Form field: reported TGI of `COC(=O)c1nc(-c2ccc3c(n2)C(=O)C(N)=C(OC)C3=O)c(N)c(-c2ccc(OC)c(OC)c2O)c1C`
5.97 µM

# TGI lookup, item `CCNC(=O)/C=C/CCC#Cc1ccc(-c2ccc(-c3cccs3)s2)s1`
> 100 µM

Need TGI of C[C@@H]1C[C@]2(C[C@@H](C)[C@H]3C(C[C@@]4(C)CCC[C@@H]5C6=C[C@H](CCC34C)OC6=CC(=O)OC5(C)C)O2)OC1=O (stereo partly specified) , thanks.
> 51.5 µM

Which TGI is listed for `CC1=C(C)CC2(SC1)C(=O)c1ccccc1C2=O` ?
> 100 µM

Field request: TGI | item: `CCOCC(=O)N[C@H]1CCc2cc(OC)c(OC)c(OC)c2-c2ccc(SC)c(=O)cc21`
< 0.01 µM

Dear colleague, I am looking for the recorded TGI of the following molecule: O=c1[nH]c(=O)n(C2CC(O)C(CO)O2)cc1C(OCC(F)(F)F)OCC(F)(F)F (stereo unspecified)
> 100 µM

Recorded TGI of `CC(=O)OCc1cc(=O)n(C)c2c3c4c(cc12)c(C)cc(=O)n4CO3` , please.
15.8 µM

# query: TGI of entry `Cc1cc2c(cc1C)[n+](=O)c(C(=O)/C=C/c1ccc(Cl)cc1)c(C)n2[O-]`
> 100 µM
